Values were extracted from patent US20150087627A1.

Experimental target: PI3K β (p110β/p85α) (Homo sapiens, UniProt P42338)
Construct: purchased Upstate / Millipore Corporation
Sequence (P42338 whole entry): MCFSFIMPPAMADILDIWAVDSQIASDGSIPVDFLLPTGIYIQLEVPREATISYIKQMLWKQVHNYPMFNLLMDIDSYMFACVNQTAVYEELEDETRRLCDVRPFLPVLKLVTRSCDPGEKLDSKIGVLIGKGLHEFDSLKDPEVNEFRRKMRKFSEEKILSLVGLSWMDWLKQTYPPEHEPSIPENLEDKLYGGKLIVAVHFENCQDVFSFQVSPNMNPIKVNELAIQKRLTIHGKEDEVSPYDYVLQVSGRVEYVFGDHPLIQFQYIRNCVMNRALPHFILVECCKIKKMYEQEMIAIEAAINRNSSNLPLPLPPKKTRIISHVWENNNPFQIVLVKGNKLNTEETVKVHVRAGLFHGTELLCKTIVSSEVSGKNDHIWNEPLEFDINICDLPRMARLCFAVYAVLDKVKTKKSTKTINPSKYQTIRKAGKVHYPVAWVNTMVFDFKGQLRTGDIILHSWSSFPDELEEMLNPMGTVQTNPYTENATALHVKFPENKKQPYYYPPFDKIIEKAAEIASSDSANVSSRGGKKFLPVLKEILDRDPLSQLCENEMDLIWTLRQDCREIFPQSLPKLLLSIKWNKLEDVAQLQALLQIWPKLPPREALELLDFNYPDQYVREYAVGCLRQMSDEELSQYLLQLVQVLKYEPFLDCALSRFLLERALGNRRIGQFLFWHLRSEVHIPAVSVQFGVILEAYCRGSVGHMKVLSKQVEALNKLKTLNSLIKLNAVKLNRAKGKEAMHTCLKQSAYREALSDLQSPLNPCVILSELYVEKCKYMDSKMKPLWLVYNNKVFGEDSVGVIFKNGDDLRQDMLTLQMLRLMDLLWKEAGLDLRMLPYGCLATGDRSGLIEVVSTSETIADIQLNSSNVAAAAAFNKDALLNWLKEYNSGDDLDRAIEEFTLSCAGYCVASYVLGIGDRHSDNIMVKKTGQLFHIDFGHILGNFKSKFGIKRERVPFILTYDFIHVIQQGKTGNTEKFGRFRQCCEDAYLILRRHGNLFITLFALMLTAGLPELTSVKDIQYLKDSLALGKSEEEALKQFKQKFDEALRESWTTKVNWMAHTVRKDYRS
Sequence (P27986 whole entry partner): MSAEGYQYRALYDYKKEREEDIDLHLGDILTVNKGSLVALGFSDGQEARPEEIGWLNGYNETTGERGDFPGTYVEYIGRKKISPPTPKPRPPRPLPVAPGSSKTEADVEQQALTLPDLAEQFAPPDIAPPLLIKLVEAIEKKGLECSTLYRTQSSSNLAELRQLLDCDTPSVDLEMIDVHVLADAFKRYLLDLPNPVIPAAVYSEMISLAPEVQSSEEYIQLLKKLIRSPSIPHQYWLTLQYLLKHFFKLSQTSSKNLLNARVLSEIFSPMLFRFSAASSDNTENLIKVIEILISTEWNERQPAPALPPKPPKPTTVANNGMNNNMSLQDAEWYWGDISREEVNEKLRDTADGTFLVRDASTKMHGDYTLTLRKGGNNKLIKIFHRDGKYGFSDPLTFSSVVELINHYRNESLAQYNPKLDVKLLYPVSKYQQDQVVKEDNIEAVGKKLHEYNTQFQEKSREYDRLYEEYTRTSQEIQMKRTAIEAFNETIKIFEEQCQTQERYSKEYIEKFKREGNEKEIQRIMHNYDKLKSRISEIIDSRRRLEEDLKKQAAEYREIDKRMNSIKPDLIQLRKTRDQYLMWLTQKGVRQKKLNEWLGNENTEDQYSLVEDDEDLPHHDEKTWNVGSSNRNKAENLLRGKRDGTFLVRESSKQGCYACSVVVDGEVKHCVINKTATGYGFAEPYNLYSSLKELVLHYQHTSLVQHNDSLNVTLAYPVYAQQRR
Experimental details: PI 3-Kinase (human) HTRF assay, PI3K β
Assay type: biochemical
Setup conditions: read-out: PI3K β IC50
pIC50: −log10 of the molar value.
Readout name: pIC50

Solved entries (count: 4):
Nc1nc2cc(-c3ccc4ncn(-c5ccccc5)c4c3)ccc2o1: > 5.00
CC(=O)Nc1nc2cc(-c3ccc4oc(N)nc4c3)ccc2o1: < 5.00
Cc1nc2ccc(-c3ccc4oc(N)nc4c3)cn2c1C(=O)N1CCOCC1: < 5.00
COc1ncc(-c2ccc3ncc(C(=O)N4CCOCC4)n3c2)cc1NS(=O)(=O)c1cccnc1: > 7.00

Query: # pIC50 lookup, item C[C@H]1CN(c2cnc3ccc(-c4ccc5sc(N)nc5c4)cc3n2)CCN1
Reply: > 6.00

Query: # pIC50 lookup, item Nc1nc2cc(-c3ccc4ncc(NCCCN5CCCC5)nc4c3)ccc2o1
Reply: > 6.00

Query: # pIC50 lookup, item CN1CCN(n2cnc3ccc(-c4ccc5oc(N)nc5c4)cc3c2=O)CC1 [Compound 518]
Reply: < 5.00

Query: # pIC50 lookup, item Cc1cc(-c2ccc3nc(N)oc3c2)cn2c(CN3CCN(C)CC3)nnc12
Reply: < 5.00

Query: # pIC50 lookup, item Nc1nc2cc(-c3ccc4ncc(C(=O)NCCO)n4c3)ccc2o1
Reply: > 6.00

Query: # pIC50 lookup, item Cc1nccn1C1CCN(c2cnc3ccc(-c4ccc5oc(N)nc5c4)cc3n2)CC1
Reply: > 5.00

Query: # pIC50 lookup, item C[C@H]1CN(c2cnc3ccc(-c4ccc5nc(N)sc5c4)cc3n2)CCN1
Reply: > 6.00

Query: # pIC50 lookup, item CCN1CCN(c2cnc3ccc(-c4ccc5oc(N)nc5c4)cc3n2)CC1
Reply: > 7.00

Query: # pIC50 lookup, item Nc1nc2cc(-c3ccc4ncc(N5CC(C(=O)N6CCOCC6)C5)nc4c3)ccc2o1 [Compound 252]
Reply: > 5.00

Query: # pIC50 lookup, item N#Cc1cnc2ccc(-c3ccc4oc(N)nc4c3)cc2c1
Reply: < 5.00

Query: # pIC50 lookup, item Nc1nc2cc(-c3ccc4ncc(C(=O)N5CC(N6CCC(F)(F)C6)C5)n4c3)ccc2o1
Reply: < 5.00

Query: # pIC50 lookup, item Nc1nc2ccc(-c3ccc4nnc(-c5cccnc5)n4c3)cc2o1
Reply: > 5.00

Query: # pIC50 lookup, item Nc1nc2cc(-c3ccc4ncc(N5CCC(O)C5)nc4c3)ccc2o1 (stereo not drawn)
Reply: > 6.00

Query: # pIC50 lookup, item COc1ncc(-c2ccc3ncc(C(=O)N4CCOCC4)n3c2)cc1NS(=O)(=O)c1ccccc1
Reply: < 5.00
